Each entry below lists one item and its recorded melting point value.

Illustrative cases are given below, each with its answer.
[[record]]
compound = "COC(=O)c1ccc(Cc2c(-c3ccc(C(=N)N)cc3)[nH]c3cc(C(=N)N)ccc23)cc1.Cl.Cl"
result = "> 250 °C"

[[record]]
compound = "CC(C)OC(=O)C(C)Oc1cc(C(=N)N)ccc1-c1cc2ccc(C(=N)N)cc2[nH]1.Cl.Cl (centres unmarked)"
result = "240 °C"

[[record]]
compound = "COCCOCCOC(=O)Cc1c(-c2ccc(C(=N)N)cc2)[nH]c2cc(C(=N)N)ccc12.Cl.Cl"
result = "> 250 °C"

[[record]]
compound = "Cl.Cl.O=CCc1c(-c2ccc(C3=NCCN3)cc2)[nH]c2cc(C3=NCCN3)ccc12"
result = "> 300 °C"


Turning to the following compound.
Report melting point for CCOC(=O)CNCCc1c(-c2ccc(C(=N)N)cc2)[nH]c2cc(C(=N)N)ccc12.Cl.Cl
> 250 °C

---

Measured endpoint: melting point

[[record]]
molecule = "Cl.Cl.N=C(N)c1ccc(-c2[nH]c3cc(C(=N)N)ccc3c2CC(=O)O)cc1"
measured_endpoint = "melting point"
result = "> 250 °C"

[[record]]
molecule = "Cl.Cl.N=C(N)c1ccc(-c2[nH]c3cc(C(=N)N)ccc3c2CC(=O)OCc2ccccc2)cc1"
measured_endpoint = "melting point"
result = "> 250 °C"

[[record]]
molecule = "COC(=O)C(CCCCN)NC(=O)Cc1c(-c2ccc(C(=N)N)cc2)[nH]c2cc(C(=N)N)ccc12.Cl.Cl (centres unmarked)"
measured_endpoint = "melting point"
result = "> 260 °C"

[[record]]
molecule = "Cl.Cl.N=C(N)c1ccc(-c2[nH]c3cc(C(=N)N)ccc3c2CC(=O)NCC(=O)NC(CCC(=O)OCc2ccccc2)C(=O)OCc2ccccc2)cc1 (centres unmarked)"
measured_endpoint = "melting point"
result = "207 to 212 °C"

[[record]]
molecule = "Cl.Cl.O=C(O)Cc1c(-c2ccc(C3=NCCN3)cc2)[nH]c2cc(C3=NCCN3)ccc12"
measured_endpoint = "melting point"
result = "> 300 °C"

[[record]]
molecule = "Cl.Cl.Fc1cc2cc(-c3ccc(C4=NCCN4)cc3)[nH]c2cc1C1=NCCN1"
measured_endpoint = "melting point"
result = "> 250 °C"


Report melting point for Cl.Cl.N=C(N)c1ccc(-c2[nH]c3cc(C(=N)N)ccc3c2CC(=O)OCCOCCO)cc1
> 250 °C

Report melting point for Cl.Cl.N=C(N)c1ccc(-c2[nH]c3cc(C(=N)N)ccc3c2NC(=O)CCC(=O)O)cc1
> 250 °C
